- Test system: Klebsiella aerogenes 1082 E
- method: In vitro anti-bacterial activity test (MIC, two-fold dilution method) against the standard strains
- Assay type: cell-based
- conditions: Table 1 strain 17: Klebsiella aerogenes 1082 E
The reader will find reported MIC values listed item by item below.
Supply the numeric figure in ng/mL, leaving out any unit text.

Sample answers from the record:
NC1CC12CCN(c1c(F)cc3c(=O)c(C(=O)O)cn(C4CC4)c3c1F)C2 (centres unmarked): 4
C[C@H]1COc2c(N3CCC4(CC4C(=O)O)C3)c(F)cc3c(=O)c(C(=O)O)cn1c23 (some centres unmarked): 98
O=C(O)c1cn(C2CC2)c2cc(N3CCNCC3)c(F)cc2c1=O [Ciprofloxacin, ciprofloxacin, reference compound]: 7
Nc1c(F)c(N2CCC3(CC3N)C2)c(F)c2c1c(=O)c(C(=O)O)cn2C1CC1 (centres unmarked): 7
CNC1CC12CCN(c1c(F)cc3c(=O)c(C(=O)O)cn(C4CC4)c3c1F)C2 (centres unmarked): 4
NC1CC12CCCN(c1c(F)cc3c(=O)c(C(=O)O)cn(C4CC4)c3c1F)C2 (centres unmarked): 13

// next entry
Ask | I'd like to know its MIC. The compound in question is NCC1CC12CCN(c1c(F)cc3c(=O)c(C(=O)O)cn(C4CC4)c3c1F)C2 (centres unmarked)
Reply | 25

----------
The reader will find reported MIC values listed item by item below.
- System: Staphylococcus aureus 697 E
- method: In vitro anti-bacterial activity test (MIC, two-fold dilution method), Table 2 strains
- Type: cell-based
- conditions: Table 2 strain 10: Staphylococcus aureus 697 E

Ask | I'd like to know its MIC. The molecule in question is O=C(O)c1cn(C2CC2)c2cc(N3CCNCC3)c(F)cc2c1=O [Ciprofloxacin, ciprofloxacin, reference compound]
Reply | 0.391 µg/mL

----------
- System: Staphylococcus aureus 703 E
- method: In vitro anti-bacterial activity test (MIC, two-fold dilution method), Table 2 strains
- Format: cell-based
- conditions: Table 2 strain 12: Staphylococcus aureus 703 E; read-out: MIC
property: MIC (µg/mL)
Supply the numeric figure in µg/mL, leaving out any unit text.

CNC1CC12CCN(c1c(F)cc3c(=O)c(C(=O)O)cn(C4CC4)c3c1F)C2 (stereo not shown) [Example 8]: 0.195

Ask | Write down the reported MIC of CNC1CC12CCN(c1c(F)cc3c(=O)c(C(=O)O)cn(C4CC4)c3c1Cl)C2 (stereo not shown) [Example 9] , test system: Staphylococcus aureus 703 E.
Reply | 0.098

Ask | Write down the reported MIC of Nc1c(F)c(N2CCC3(CC3N)C2)c(F)c2c1c(=O)c(C(=O)O)cn2C1CC1 (stereo not shown) [Example 7] , test system: Staphylococcus aureus 703 E.
Reply | 0.025

Ask | Write down the reported MIC of CC1COc2c(N3CCN(C)CC3)c(F)cc3c(=O)c(C(=O)O)cn1c23 (stereo not shown) [Ofloxacin, ofloxacin, reference compound] , test system: Staphylococcus aureus 703 E.
Reply | 0.781

----------
- method: Acute Toxicity Test
- conditions: mouse, in vivo, ip; Intraperitoneal Injection; female ICR mice; day 14; read-out: Acute Toxicity(LD₅₀)
The reader will find reported LD50 values listed item by item below.
Include the unit after the number when you answer.

NC1CC12CCN(c1c(F)cc3c(=O)c(C(=O)O)cn(C4CC4)c3c1F)C2 (centres unmarked) [Example 1]: 605 mg/kg

Ask | I'd like to know its LD50. The molecule in question is CC(O)C(=O)O.NC1CC12CCN(c1c(F)cc3c(=O)c(C(=O)O)cn(C4CC4)c3c1F)C2 (centres unmarked) [Example 2]
Reply | 580 mg/kg
